Value source: ChEMBL document CHEMBL3580552

tested on: Plasmodium falciparum; assay: Antiplasmodial activity against chloroquine-sensitive erythrocytic stage Plasmodium falciparum NF54 assessed as [3H]hypoxanthine incorporation after 48 to 72 hrs by Betaplate liquid scintillation counting; format: functional, organism-based
Quantity: IC50
Record the result as number plus unit.

# example entries with known answers
Compound	Result
CC(=O)O[C@@H]1C[C@H]2C(C)(C)C(=O)C=C[C@]2(C)[C@H]2CC[C@]3(C)C(=CC[C@H]3[C@@H]3C[C@H]([C@@H]4OC4(C)C)OC3=O)[C@@]21C	440 nM
CC(C)=CC(=O)O[C@H]1CC[C@]2(C)[C@H]3CC[C@]45C[C@]4(CC[C@H]5[C@@H]4C[C@H]([C@H](O)C(C)(C)O)O[C@H]4O)[C@]3(C)[C@H](O)C[C@H]2C1(C)C	1400 nM
CC(C)=CC(=O)O[C@H]1CC[C@]2(C)[C@H]3CC[C@]45C[C@]4(CC[C@H]5[C@@H]4C[C@H]([C@@H]5O[C@@]5(C)CO)O[C@H]4O)[C@]3(C)[C@H](O)C[C@H]2C1(C)C	1300 nM
CO[C@@H]1O[C@@H]([C@H](O)C(C)(O)CO)C[C@H]1[C@@H]1CC[C@]23C[C@]12CC[C@@H]1[C@@]2(C)CC[C@H](OC(=O)C=C(C)C)C(C)(C)[C@@H]2C[C@@H](O)[C@]13C (stereo partly specified)	1300 nM

In: Jot down IC50 (Plasmodium falciparum) of C=C(C)[C@@H]1CC=C2[C@H](CC[C@@]3(C)[C@H]([C@@H](C)CC(O)C(O)C(C)(C)O)CC[C@]23C)[C@@]1(C)CCC(=O)O (stereo partly specified) .
Out: 19300 nM

In: Jot down IC50 (Plasmodium falciparum) of CC(=O)O[C@@H]1C[C@H]2C(C)(C)[C@H](O)CC[C@]2(C)[C@H]2CC[C@]3(C)C(=CC[C@H]3[C@@H]3C[C@H]([C@H](O)C(C)(C)O)OC3=O)[C@@]21C .
Out: 2000 nM

----------
experiment: Selectivity index, ratio of IC50 for rat L6 cells to IC50 for erythrocytic stages of Plasmodium falciparum NF54; type: toxicity, cell-based; details: read-out: Ratio IC50
Quantity: selectivity ratio
Enter the number alone.

# example entries with known answers
Molecule	Readout number
CC(C)(O)[C@H](O)[C@H]1C[C@@H]([C@@H]2CC=C3[C@]4(C)[C@H](O)C[C@H]5C(C)(C)C(=O)C=C[C@]5(C)[C@H]4CC[C@]32C)C(=O)O1	25.2
CC(C)=CC(=O)O[C@H]1CC[C@]2(C)[C@H]3CC[C@]45C[C@]4(CC[C@H]5[C@@H]4C[C@H]([C@H](O)C(C)(C)O)O[C@H]4O)[C@]3(C)[C@H](O)C[C@H]2C1(C)C	4.4

In: State its selectivity ratio: CC(=O)O[C@@H]1CC[C@]2(C)[C@H]3CC[C@]4(C)C(=CC[C@H]4[C@@H]4C[C@H]([C@H](O)C(C)(C)O)OC4=O)[C@]3(C)[C@H](OC(C)=O)C[C@H]2C1(C)C
Out: 12.7

In: State its selectivity ratio: CC(C)=CC(=O)O[C@H]1CC[C@]2(C)[C@H]3CC[C@]45C[C@]4(CC[C@H]5[C@@H]4C[C@H]([C@@H]5O[C@@]5(C)CO)O[C@H]4O)[C@]3(C)[C@H](O)C[C@H]2C1(C)C
Out: 6.8

In: State its selectivity ratio: CO[C@@H]1O[C@@H]([C@H](O)C(C)(O)CO)C[C@H]1[C@@H]1CC[C@]23C[C@]12CC[C@@H]1[C@@]2(C)CC[C@H](OC(=O)C=C(C)C)C(C)(C)[C@@H]2C[C@@H](O)[C@]13C (stereo not given in full)
Out: 9
